assay_system: human FSH receptor (Homo sapiens)
Construct: expressed in transfected cells
Sequence (P23945 18-695): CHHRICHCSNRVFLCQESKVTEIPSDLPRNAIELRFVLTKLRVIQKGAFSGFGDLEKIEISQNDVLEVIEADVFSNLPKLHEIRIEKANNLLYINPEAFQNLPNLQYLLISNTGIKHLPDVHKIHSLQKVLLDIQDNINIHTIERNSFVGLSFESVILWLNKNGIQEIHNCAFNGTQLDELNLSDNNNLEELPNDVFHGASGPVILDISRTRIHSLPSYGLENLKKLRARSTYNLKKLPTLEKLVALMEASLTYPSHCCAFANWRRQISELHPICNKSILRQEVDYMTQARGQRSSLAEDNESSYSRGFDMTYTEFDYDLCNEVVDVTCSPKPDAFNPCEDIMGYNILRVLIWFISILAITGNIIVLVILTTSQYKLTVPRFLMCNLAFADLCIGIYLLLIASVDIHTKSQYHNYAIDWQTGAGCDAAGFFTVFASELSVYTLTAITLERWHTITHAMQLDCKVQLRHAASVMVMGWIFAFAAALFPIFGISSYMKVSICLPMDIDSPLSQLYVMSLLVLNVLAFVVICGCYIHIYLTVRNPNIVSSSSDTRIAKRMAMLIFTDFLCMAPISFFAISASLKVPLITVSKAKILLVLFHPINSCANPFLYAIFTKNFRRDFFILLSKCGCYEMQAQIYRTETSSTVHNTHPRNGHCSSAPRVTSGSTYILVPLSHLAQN
assay_info: hFSHRago (CHO luc): agonistic activity at the human FSH receptor expressed in CHO cells, CRE-luciferase reporter
Assay type: cell-based
test_settings: CHO cells stably transfected with human FSH receptor and CRE/luciferase reporter; 4 hours of incubation
pEC50: −log10 of the molar value.
property: pEC50

                                    molecule  number
 0  COc1cc2c(cc1OC(C)C)-c1c(-c3cccs3)cc(C(=O)N(C)[C@@H]3CCCN(C(C)=O)C3)n1CC2 [Example 34d]    6.30
 1  COc1cc2c(cc1NC(=O)c1cccnc1)-c1c(-c3cccs3)cc(C(=O)N(C)C(C)(C)C)n1CC2 [Example 102]    7.89
 2  COc1cc2c(cc1OC)-c1c(-c3cccs3)cc(C(=O)N3CC[C@@H](NC(=O)N(C)C)C3)n1CC2 [Example 106]    6.12
 3  COc1cc2c(cc1OC(C)C)-c1c(-c3cccs3)cc(C(=O)C3CCCC3)n1CC2 [Example 46]    7.11
 4  COc1cc2c(cc1OCCS(C)(=O)=O)-c1c(-c3cccs3)cc(C(=O)N(C)C(C)(C)C)n1CC2 [Example 72]    7.77
 5  COc1cc2c(cc1OC)-c1c(-c3cccs3)cc(C(=O)N3CCC[C@H](NC(=O)C4CCC4)C3)n1CC2 [Example 105]    5.76
 6  CCN(C(=O)c1cc(-c2cccs2)c2n1CCc1cc(OC)c(OC(C)C)cc1-2)[C@@H]1CCCN(C(=O)C2CCC2)C1 [Example 33d]    6.55
 7  CCOC(=O)COc1cc2c(cc1OC)CCn1c(C(=O)N(C)C(C)(C)C)cc(-c3cccs3)c1-2 [Example 63]    6.60
 8  CN(C(=O)c1cc(-c2cccs2)c2n1CCc1ccc(N3CCNC3=O)cc1-2)C(C)(C)C [Example 90]    6.66
 9  COc1cc2c(cc1OCCSC)-c1c(-c3cccs3)cc(C(=O)N(C)C(C)(C)C)n1CC2 [Example 71]    7.58
10  COc1cc2c(cc1OC(C)C)-c1c(-c3cccs3)c(Cl)c(C(=O)N3CCCN(C(C)=O)CC3)n1CC2 [Example 12b]    8.72
11  COc1cc2c(cc1OCCC(C)C)-c1c(-c3cccs3)cc(C(=O)N3CCCN(C(C)=O)CC3)n1CC2 [Example 80]    7.00
12  COc1cc2c(cc1OC(C)C)-c1c(C3CCCC3)cc(C(=O)NC(C)(C)C)n1CC2 [Example 50]    6.66
13  COc1cc2c(cc1OCCCO)-c1c(-c3cccs3)cc(C(=O)N(C)C(C)(C)C)n1CC2 [Example 70d]    8.89
14  COCc1c(-c2cccs2)c2n(c1C(=O)N(C)C(C)(C)C)CCc1cc(OC)c(OC(C)C)cc1-2 [Example 41]    8.55
